The values you see were collected from ChEMBL document CHEMBL3885861.

Species: Rattus norvegicus
assay remarks: Open TG-GATES - Regimen: Single
Type: toxicity, organism-based, Sprague-Dawley
Design: regimen Single, gender Male, age 6 weeks
measurement context: in vivo, po, 0 mg/kg, 3 h, tissue Kidney, route gavage, dose level Control
Here the recorded KIDNEY_R is given for each entry.

compound | u | KIDNEY_R
C=CCO | g | 0.9
O=P1(N(CCCl)CCCl)NCCCO1 (configuration not stated) [CYCLOPHOSPHAMIDE ANHYDROUS] | g | 0.8
Cc1cccc(Nc2cc(Cl)nc(SCC(=O)O)n2)c1C | g | 0.8
Cc1cnc(NC(=O)C2=C(O)c3ccccc3S(=O)(=O)N2C)s1 | g | 1
O=C1CN(/N=C/c2ccc(-c3ccc([N+](=O)[O-])cc3)o2)C(O)=N1 | g | 1
COc1ccc(Cl)cc1C(=O)NCCc1ccc(S(=O)(=O)NC(=O)NC2CCCCC2)cc1 [GLYBURIDE] | g | 1
Cn1cnc([N+](=O)[O-])c1Sc1ncnc2nc[nH]c12 | g | 0.9
CS(=O)(=O)Nc1ccc([N+](=O)[O-])cc1Oc1ccccc1 [NIMESULIDE] | g | 0.9
S=C=Nc1cccc2ccccc12 [1-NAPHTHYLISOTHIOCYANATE] | g | 1
COc1ccc(O)c(C(C)(C)C)c1.COc1ccc(O)cc1C(C)(C)C [BUTYLATED HYDROXYANISOLE] | g | 0.8
CNCCC(Oc1ccc(C(F)(F)F)cc1)c1ccccc1.Cl (configuration not stated) [FLUOXETINE HYDROCHLORIDE] | g | 0.9
O=C1NC(=O)C(c2ccccc2)(c2ccccc2)N1 | g | 0.9

----------
Species on record: Rattus norvegicus
assay remarks: Open TG-GATES - Regimen: Daily Repeat
Assay type: toxicity, organism-based, Sprague-Dawley
Set-up: regimen Daily Repeat, gender Male, age 6 weeks
measurement context: in vivo, po, 0 mg/kg, […], tissue Plasma, route gavage, dose level Control, time 7 day
Let's look at some compounds and their measured gamma-GTP.

compound | gamma-GTP / IU/L
O=P1(N(CCCl)CCCl)NCCCO1 (stereo unspecified) [CYCLOPHOSPHAMIDE ANHYDROUS] | 1.6
CS(=O)(=O)Nc1ccc([N+](=O)[O-])cc1Oc1ccccc1 [NIMESULIDE] | 1.4
Cn1c(=O)c2c(ncn2C)n(C)c1=O | 1.8
O=C1CN(/N=C/c2ccc(-c3ccc([N+](=O)[O-])cc3)o2)C(O)=N1 | 1.4
COc1ccc(O)c(C(C)(C)C)c1.COc1ccc(O)cc1C(C)(C)C [BUTYLATED HYDROXYANISOLE] | 1
Cc1cnc(NC(=O)C2=C(O)c3ccccc3S(=O)(=O)N2C)s1 | 1.2
Cc1cccc(Nc2cc(Cl)nc(SCC(=O)O)n2)c1C | 1
C=CCO | 0.8
Cn1cnc([N+](=O)[O-])c1Sc1ncnc2nc[nH]c12 | 1.2
O=C1NC(=O)C(c2ccccc2)(c2ccccc2)N1 | 0.8
COc1ccc(Cl)cc1C(=O)NCCc1ccc(S(=O)(=O)NC(=O)NC2CCCCC2)cc1 [GLYBURIDE] | 1

----------
Listed next: entries and their corresponding TC.
Species: Rattus norvegicus
assay remarks: Open TG-GATES - Regimen: Daily Repeat
Assay type: toxicity, organism-based, Sprague-Dawley
Parameters: regimen Daily Repeat, gender Male, age 6 weeks
measurement context: in vivo, po, 0 mg/kg, 72 h, tissue Plasma, route gavage, dose level Control, time 3 day
assay metric: TC (mg/dL)

compound | value
COc1ccc(Cl)cc1C(=O)NCCc1ccc(S(=O)(=O)NC(=O)NC2CCCCC2)cc1 [GLYBURIDE] | 86
Cc1cnc(NC(=O)C2=C(O)c3ccccc3S(=O)(=O)N2C)s1 | 70.8
Cn1cnc([N+](=O)[O-])c1Sc1ncnc2nc[nH]c12 | 79.8
Cn1c(=O)c2c(ncn2C)n(C)c1=O | 69.2
CS(=O)(=O)Nc1ccc([N+](=O)[O-])cc1Oc1ccccc1 [NIMESULIDE] | 69
O=P1(N(CCCl)CCCl)NCCCO1 (stereo unspecified) [CYCLOPHOSPHAMIDE ANHYDROUS] | 69.6
C=CCO | 77.4
Cc1cccc(Nc2cc(Cl)nc(SCC(=O)O)n2)c1C | 79.6
O=C1NC(=O)C(c2ccccc2)(c2ccccc2)N1 | 73.4
COc1ccc(O)c(C(C)(C)C)c1.COc1ccc(O)cc1C(C)(C)C [BUTYLATED HYDROXYANISOLE] | 76.8
O=C1CN(/N=C/c2ccc(-c3ccc([N+](=O)[O-])cc3)o2)C(O)=N1 | 78.4
